logD overview
experiment: Partition coefficient, log D of the compound; assay type: physicochemical; conditions: octanol/water
Lab note: jot down the number only; don't add units.

MOLECULAR_STRING	logD
C[C@@H](O)[C@H](NC(=O)[C@@H]1CSSC[C@H](NC(=O)[C@@H](Cc2ccccc2)NC(=O)CCc2cn(CC[18F])nn2)C(=O)N[C@@H](Cc2ccc(O)cc2)C(=O)N[C@H](Cc2c[nH]c3ccccc23)C(=O)N[C@@H](CCCCN)C(=O)N[C@@H]([C@@H](C)O)C(=O)N1)C(=O)O	-1.5
C[C@@H](O)[C@H](NC(=O)[C@@H]1CSSC[C@H](NC(=O)[C@@H](Cc2ccccc2)NC(=O)CCOCCOCCOCCOCCOCCOCCNC(=O)CNC(=O)c2cn(CC[18F])nn2)C(=O)N[C@@H](Cc2ccc(O)cc2)C(=O)N[C@H](Cc2c[nH]c3ccccc23)C(=O)N[C@@H](CCCCN)C(=O)N[C@@H]([C@@H](C)O)C(=O)N1)C(=O)O	-2.68

Now for another entry.
The compound C[C@@H](O)[C@H](NC(=O)[C@@H]1CSSC[C@H](NC(=O)[C@@H](Cc2ccccc2)NC(=O)CNC(=O)c2cn(CC[18F])nn2)C(=O)N[C@@H](Cc2ccc(O)cc2)C(=O)N[C@H](Cc2c[nH]c3ccccc23)C(=O)N[C@@H](CCCCN)C(=O)N[C@@H]([C@@H](C)O)C(=O)N1)C(=O)O showed logD equal to -1.83

====

logD overview
assay: Partition coefficient, log D of the compound; assay type: physicochemical; conditions: octanol/water

MOLECULAR_STRING	logD
C[C@@H](O)[C@H](NC(=O)[C@@H]1CSSC[C@H](NC(=O)[C@@H](Cc2ccccc2)NC(=O)CCOCCOCCOCCOCCOCCOCCNC(=O)CCc2cn(CC[18F])nn2)C(=O)N[C@@H](Cc2ccc(O)cc2)C(=O)N[C@H](Cc2c[nH]c3ccccc23)C(=O)N[C@@H](CCCCN)C(=O)N[C@@H]([C@@H](C)O)C(=O)N1)C(=O)O	-2.77

Now for another entry.
The compound C[C@@H](O)[C@@H]1NC(=O)[C@@H](NC(=O)[C@@H](Cc2cc3ccccc3[nH]2)NC(=O)CNC(=O)CCNC(=O)c2cn(CC[18F])nn2)CSSC[C@@H](C(=O)N[C@@H](CCCCN)C(=O)O)NC(=O)[C@H](Cc2ccc(O)cc2)NC(=O)[C@H]([C@@H](C)O)NC(=O)[C@@H](Cc2ccccc2)NC1=O showed logD equal to -1.14
